Task for the reader: assign each of the following molecules its reported T/C.
test system: L1210 leukemia ip in BDF1 mice, survival T/C; test: NCI In Vivo Anticancer Drug Screen. Data for tumor model L1210 Leukemia (intraperitoneal) in B6D2F1 (BDF1) mice; settings: endpoint: mean survival time; dose: 400.0 mg/kg/injection; schedule: Q01DX001 (ip); vehicle: Klucel (hydroxypropylcellulose) (HPC); higher = longer survival
Inconclusive results and toxic doses are left out. Square brackets hold non-standard residues; d marks the D form. Peptide text beside a SMILES is read from it. * marks the point of attachment. ξ: configuration not given here. Octanoyl = CCCCCCCC(=O)*; ξP = O=C(O)C1CCCN1

>  <molecule>
O=C(NCCCl)NC1c2cc(Cl)ccc2-c2c(Cl)cc(Cl)cc21 (configuration not stated)

>  <T/C>
92 % of control

$$$$
>  <molecule>
Clc1ccc(/C=N\N2CCCCCC2)cc1

>  <T/C>
98 % of control

$$$$
>  <molecule>
CC(C)C1(C)C(=O)N(C)C(=O)N1Br (configuration not stated)

>  <T/C>
98 % of control

$$$$
>  <molecule>
CCCCCCCC(=O)N1CCCC1C(=O)NCC(=O)NCC(=O)O (stereo not drawn) (Octanoyl-[ξP]-Gly-Gly-OH)

>  <T/C>
95 % of control

$$$$
>  <molecule>
Cc1cccc(C(O)c2cnc(C)n2Cc2ccccc2)c1 (configuration not stated)

>  <T/C>
97 % of control

$$$$

Report T/C for every entry below.
1. CN(C)c1ccc(-c2cc(NS(=O)(=O)c3ccccc3)ccc2NS(=O)(=O)c2ccccc2)cc1
2. CCCCC(=O)N1C(=O)/C(=C\N(C)C)c2cc(C=O)ccc21
3. CCOC(=O)c1cnc(SC)nc1Nc1ccccc1[N+](=O)[O-]
4. COc1ccc(Br)cc1C1OC(=O)c2c(OC)c(OC)cc(O)c21 (configuration not stated)

### Response
96 % of control
93 % of control
88 % of control
94 % of control

* * *

test system: L1210 leukemia ip in BDF1 mice, survival T/C; assay: NCI In Vivo Anticancer Drug Screen. Data for tumor model L1210 Leukemia (intraperitoneal) in B6D2F1 (BDF1) mice; settings: endpoint: mean survival time; dose: 25.0 mg/kg/injection; schedule: Q04DX003 (ip); vehicle: Klucel (hydroxypropylcellulose) (HPC); higher = longer survival
Inconclusive results and toxic doses are left out.
measurement-kind: T/C

# annotated cases, reported T/C shown
>  <compound>
CS(=O)(=O)c1nc2ccccc2s1

>  <T/C>
101 % of control

$$$$
>  <compound>
CCC1(O)C(=O)OCc2c1cc(C)[nH]c2=O (centres undefined)

>  <T/C>
86 % of control

$$$$
>  <compound>
Cn1[nH]c(=O)c2ccccc2c1=O

>  <T/C>
97 % of control

$$$$

For reference, reported T/C for C[N+](C)(C)Cc1ccccc1C=C(c1ccccc1)c1ccccc1 stands at 101 % of control

* * *

tested on: L1210 leukemia ip in BDF1 mice, survival T/C; assay: NCI In Vivo Anticancer Drug Screen. Data for tumor model L1210 Leukemia (intraperitoneal) in B6D2F1 (BDF1) mice; details: endpoint: mean survival time; dose: 100.0 mg/kg/injection; schedule: Q04DX002 (ip); vehicle: saline with Tween-80; higher = longer survival
Inconclusive results and toxic doses are left out.
measurement-kind: T/C

# annotated cases, reported T/C shown
>  <molecule>
CN1C2CCC1CC(OC(=O)c1ccccc1)C2 (stereo not drawn)

>  <measurement-kind>
T/C

>  <result>
94 % of control

$$$$
>  <molecule>
COC(=O)N1c2ccccc2C=CC1C#N (stereo not drawn)

>  <measurement-kind>
T/C

>  <result>
189 % of control

$$$$

Then there is this molecule:
For reference, reported T/C for CCOc1nc(N)nc(N)c1-c1ccccc1 stands at 111 % of control
